A collection of compounds and their measured glomerular width
- Test system: Danio rerio Tg(wt1b:EGFP) embryo, pronephros
- Assay Comment: glomerular width (mean of left and right), fold change vs DMSO control; higher = wider glomerulus
- Test Context: 25 µM; exposure: 24-48 hpf
Counter-ions that a name gives are not always drawn.
The answer should be written as a number, with no unit following it.

Previously resolved entries follow.
CSc1ccc2c(c1)N(CCC1CCCCN1C)c1ccccc1S2 (configuration not stated) [Thioridazine hydrochloride] : 1.03
COc1c(N2CCNC(C)C2)c(F)cc2c(=O)c(C(=O)O)cn(C3CC3)c12 (configuration not stated) : 1.02
CCN(CC)CCOc1ccc(C(=C(Cl)c2ccccc2)c2ccccc2)cc1 [Clomiphene citrate (Z,E)] : 0.981
CC(C)C(=O)Nc1ccc([N+](=O)[O-])c(C(F)(F)F)c1 [Flutamide] : 1.12
CC1=C(/C=C/C(C)=C/C=C/C(C)=C\C(=O)O)C(C)(C)CCC1 : 0.525
CN[C@@H]1[C@H](O)[C@H](NC)[C@H]2O[C@@]3(O)C(=O)C[C@@H](C)O[C@H]3O[C@@H]2[C@H]1O [Spectinomycin dihydrochloride] : 1.07

// query Need glomerular width, item C[C@H]1c2cccc(O)c2C(=O)C2=C(O)[C@]3(O)C(=O)C(C(N)=O)=C(O)[C@@H](N(C)C)[C@@H]3[C@@H](O)[C@@H]21 [Doxycycline hydrochloride]
// result 1.02

---

- Test system: Danio rerio Tg(wt1b:EGFP) embryo, pronephros
- Assay Comment: glomerular width (mean of left and right), fold change vs DMSO control; higher = wider glomerulus
- Test Context: 25 µM; exposure: 24-48 hpf
Structures can show the parent of a compound that is named as a salt.
Measured Attribute: glomerular width

NC(=O)c1cc[n+](CC2=C(C(=O)[O-])N3C(=O)[C@@H](NC(=O)[C@@H](c4ccccc4)S(=O)(=O)O)[C@H]3SC2)cc1 [Cefsulodin sodium salt] : 1.08
O=C1C(CC[S+]([O-])c2ccccc2)C(=O)N(c2ccccc2)N1c1ccccc1 (stereo unspecified) : 1.02
CC(=O)OC(C)C[N+](C)(C)C (stereo unspecified) [Methacholine chloride] : 1.08
CN(C)CCOC(c1ccc(Cl)cc1)c1ccccn1 (stereo unspecified) [Carbinoxamine maleate salt] : 0.999
CN(C)CCN1C(=O)c2ccccc2N(C)c2ccccc21 [Dibenzepine hydrochloride] : 1.08
O=C(O)c1cn(C2CC2)c2cc(N3CCNCC3)c(F)cc2c1=O [Ciprofloxacin hydrochloride monohydrate] : 0.94
CCN(CC)CCOC(=O)C1(c2ccc([N+](=O)[O-])cc2)CCCC1 [Nitrocaramiphen hydrochloride] : 0.971
CS(=O)(=O)Nc1ccc([N+](=O)[O-])cc1Oc1ccccc1 [Nimesulide] : 0.837
C=C1C(=O)O[C@H]2[C@H]1CC/C(C)=C/CC[C@@]1(C)O[C@@H]21 [Parthenolide] : 0.837
N[C@@H](Cc1cc(I)c(Oc2ccc(O)c(I)c2)c(I)c1)C(=O)O : 0.934

// query Given the entry CC(C)OC(=O)C(C)(C)Oc1ccc(C(=O)c2ccc(Cl)cc2)cc1 [Fenofibrate] , what glomerular width was observed with Danio rerio Tg(wt1b:EGFP) embryo, pronephros?
// result 0.648

// query Given the entry CN1CCCN=C1/C=C/c1cccc(O)c1 [Oxantel pamoate] , what glomerular width was observed with Danio rerio Tg(wt1b:EGFP) embryo, pronephros?
// result 1.01

// query Given the entry CCCN(CCC)C(=O)C(CCC(=O)O)NC(=O)c1ccccc1 (stereo unspecified) [Proglumide] , what glomerular width was observed with Danio rerio Tg(wt1b:EGFP) embryo, pronephros?
// result 1.07

// query Given the entry NC1CCN(c2c(F)cc3c(=O)c(C(=O)O)cn(C4CC4)c3c2Cl)C1 (stereo unspecified) , what glomerular width was observed with Danio rerio Tg(wt1b:EGFP) embryo, pronephros?
// result 1.03

// query Given the entry O=P(O)(O)C(O)(Cn1ccnc1)P(=O)(O)O [Zoledronic acid hydrate] , what glomerular width was observed with Danio rerio Tg(wt1b:EGFP) embryo, pronephros?
// result 1.04

// query Given the entry Clc1ccc2nsnc2c1NC1=NCCN1 [Tizanidine hydrochloride] , what glomerular width was observed with Danio rerio Tg(wt1b:EGFP) embryo, pronephros?
// result 1.01

// query Given the entry Nc1nc(NC2CC2)c2ncn([C@H]3C=C[C@@H](CO)C3)c2n1 [Abacavir Sulfate] , what glomerular width was observed with Danio rerio Tg(wt1b:EGFP) embryo, pronephros?
// result 1.05

// query Given the entry CC(=O)c1ccc2c(c1)N(CCCN1CCC(CCO)CC1)c1ccccc1S2 , what glomerular width was observed with Danio rerio Tg(wt1b:EGFP) embryo, pronephros?
// result 0.976

// query Given the entry CC(=O)c1ccc(S(=O)(=O)NC(=O)NC2CCCCC2)cc1 [Acetohexamide] , what glomerular width was observed with Danio rerio Tg(wt1b:EGFP) embryo, pronephros?
// result 1.05

// query Given the entry CCCOc1cc(N)ccc1C(=O)OCCN(CC)CC [Propoxycaine hydrochloride] , what glomerular width was observed with Danio rerio Tg(wt1b:EGFP) embryo, pronephros?
// result 0.982

// query Given the entry CCCC(C(=O)OCCN(CC)CC)(c1ccccc1)c1ccccc1 [Proadifen hydrochloride] , what glomerular width was observed with Danio rerio Tg(wt1b:EGFP) embryo, pronephros?
// result 1.09
